Cited source: ChEMBL document CHEMBL1201862

# Test system: NCI-H226
# procedure_summary: NCI tumour cell line growth inhibition, 48 h
Among all 54,000 sequences or so, about 2,800 (5.2%) were called active. These entries were drawn from the full list. Results with a measured potency or affinity are listed apart.
Kindly apply the following: yes (1) if GI50 is less than 4 µM, no (0) in every other case.

{"substance": "[Bis(aminomethyl)tetramethylenesilane]dichloropaltinum(II), CHEMBL2146205", "class_label": "no (0)"}
{"substance": "[Bis(aminomethyl)pentamethylenesilane]dichloropaltinum(II), CHEMBL2146202", "class_label": "yes (1)"}
{"substance": "[Bis(aminomethyl)pentamethylenesilane]tetrachloropaltinum(IV), CHEMBL2146204", "class_label": "yes (1)"}
{"substance": "mu-(1,7-nanodiamine-N,N')bis-(cis-aminedichloroplatimum (II)), CHEMBL2146215", "class_label": "yes (1)"}
{"substance": "[Bis(aminomethyl)tetramethylenesilane]tetrachloropaltinum(IV), CHEMBL2146189", "class_label": "no (0)"}
{"substance": "cis-Bis[[(trimethylsilyl)methyl]amino]tetrachloroplatinum(IV), CHEMBL2146191", "class_label": "no (0)"}
